Molecular target: T1, Recombinant Human DLL4 (delta-like protein 4) (human, UniProt Q9NR61 27-524)
T1 construct: also called rHuman DLL4; Delta-like 4
Assay: ELISA on coated DLL4, Fab at 3.125 nM (2-fold serial dilution)
Label label 1 when ELISA signal is strictly below 0.2; otherwise label label 0.

1. Fab VH5-51_IGHD5-18*01>3_IGHJ4*01 G100K/G104T (KT) & V3-4_IGLJ1*01 S52G (Fab, V domains shown, Fab; also called H:KT & L:S52G) VH: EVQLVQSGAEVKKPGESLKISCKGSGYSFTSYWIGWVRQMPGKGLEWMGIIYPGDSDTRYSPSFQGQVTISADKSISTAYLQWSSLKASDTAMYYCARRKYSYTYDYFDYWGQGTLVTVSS VL: QTVVTQEPSFSVSPGGTVTLTCGLSSGSVSTSYYPSWYQQTPGQAPRTLIYGTNTRSSGVPDRFSGSILGNKAALTITGAQADDESDYYCVLYMGSGISYVFGTGTKVTVL
label 0
2. Fab VH5-51_IGHD5-18*01>3_IGHJ4*01 G100K/G104T (KT) & V3-4_IGLJ1*01 R56Y (Fab, V domains shown, Fab; also called H:KT & L:R56Y) VH: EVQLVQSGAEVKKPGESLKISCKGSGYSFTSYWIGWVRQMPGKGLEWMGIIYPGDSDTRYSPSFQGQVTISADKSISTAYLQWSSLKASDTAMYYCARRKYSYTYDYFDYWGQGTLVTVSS VL: QTVVTQEPSFSVSPGGTVTLTCGLSSGSVSTSYYPSWYQQTPGQAPRTLIYSTNTYSSGVPDRFSGSILGNKAALTITGAQADDESDYYCVLYMGSGISYVFGTGTKVTVL
label 1
3. Fab VH5-51_IGHD5-18*01>3_IGHJ4*01 G100K/G104T G24L & V3-4_IGLJ1*01 (Fab, V domains shown, Fab; also called H:KT G24L & L:parent) VH: EVQLVQSGAEVKKPGESLKISCKLSGYSFTSYWIGWVRQMPGKGLEWMGIIYPGDSDTRYSPSFQGQVTISADKSISTAYLQWSSLKASDTAMYYCARRKYSYTYDYFDYWGQGTLVTVSS VL: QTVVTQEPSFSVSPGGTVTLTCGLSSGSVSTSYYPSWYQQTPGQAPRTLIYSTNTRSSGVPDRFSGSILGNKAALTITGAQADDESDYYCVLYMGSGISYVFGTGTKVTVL
label 0
4. Fab VH5-51_IGHD5-18*01>3_IGHJ4*01 G100K/G104T S28R & V3-4_IGLJ1*01 (Fab, V domains shown, Fab; also called H:KT S28R & L:parent; H:KT S28R & L:wt) VH: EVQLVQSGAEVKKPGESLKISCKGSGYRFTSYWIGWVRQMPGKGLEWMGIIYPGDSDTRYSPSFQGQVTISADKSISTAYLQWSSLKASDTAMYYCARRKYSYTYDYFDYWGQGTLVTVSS VL: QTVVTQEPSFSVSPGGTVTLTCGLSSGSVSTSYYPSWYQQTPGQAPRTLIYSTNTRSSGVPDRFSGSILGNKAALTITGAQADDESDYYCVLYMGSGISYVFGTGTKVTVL
label 0
5. Fab VH5-51_IGHD5-18*01>3_IGHJ4*01 G100K/G104T T58A & V3-4_IGLJ1*01 (Fab, V domains shown, Fab; also called H:KT T58A & L:parent) VH: EVQLVQSGAEVKKPGESLKISCKGSGYSFTSYWIGWVRQMPGKGLEWMGIIYPGDSDARYSPSFQGQVTISADKSISTAYLQWSSLKASDTAMYYCARRKYSYTYDYFDYWGQGTLVTVSS VL: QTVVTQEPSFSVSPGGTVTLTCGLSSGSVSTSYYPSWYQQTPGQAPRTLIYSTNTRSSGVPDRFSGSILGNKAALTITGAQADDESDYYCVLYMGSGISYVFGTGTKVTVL
label 0

Prompt line: Please state whether ELISA signal is below 0.2 for Fab VH5-51_IGHD5-18*01>3_IGHJ4*01 G100K/G104T T58D & V3-4_IGLJ1*01 (Fab, V domains shown, Fab; also called H:KT T58D & L:parent) VH: EVQLVQSGAEVKKPGESLKISCKGSGYSFTSYWIGWVRQMPGKGLEWMGIIYPGDSDDRYSPSFQGQVTISADKSISTAYLQWSSLKASDTAMYYCARRKYSYTYDYFDYWGQGTLVTVSS VL: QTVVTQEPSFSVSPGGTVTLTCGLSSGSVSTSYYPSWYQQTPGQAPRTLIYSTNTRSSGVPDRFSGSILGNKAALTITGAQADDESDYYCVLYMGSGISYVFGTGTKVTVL
Response line: label 0
